Taken from patent US4492650A.

- Tested on: Staphylococcus aureus 3055
- Experimental parameters: 300 mcg./disc; second test, Table 13; benzylpenicillin-susceptible
Bridge positions count the residues as written; N and C are the ends. Square brackets hold non-standard residues; d marks the D form. Peptide text beside a SMILES is read from it. * marks the point of attachment. ξ: configuration not given here. Hexadienoyl(2E,4E) = C/C=C/C=C/C(=O)*; ξPro(4ξ-Me) = CC1CNC(C(=O)O)C1; X2 = CCC/C=C/C=C/C(=O)*; NMeA = CN[CH](C)C(=O)O
Experimental endpoint: Zone diameter (mm.)
Answers are plain numbers, in mm..

C/C=C/C=C/C(=O)NC(Cc1ccccc1)C(=O)NC1COC(=O)C2CCCN2C(=O)C(C)NC(=O)C(C)N(C)C(=O)C2CCCN2C1=O (centres unmarked) [Factor E] ({Hexadienoyl(2E,4E)}-FSP[NMeA]AP; ester 2-C; configuration not given here) : 23

// moving on: another record for Zone diameter
# Zone diameter lookup, item CCC/C=C/C=C/C(=O)NC(Cc1ccccc1)C(=O)NC1COC(=O)C2CCCN2C(=O)C(C)NC(=O)C(C)N(C)C(=O)C2CC(C)CN2C1=O (centres unmarked) [Factor D] (X2-FS[ξPro(4ξ-Me)][NMeA]AP; ester 2-C; configuration not given here)
30

###

Please provide measured Zone diameter for the entries that follow.
- Tested on: Streptococcus pneumoniae Park I
- Experimental parameters: 300 mcg./disc; second test, Table 13
Bridge positions count the residues as written; N and C are the ends. Square brackets hold non-standard residues; d marks the D form. Peptide text beside a SMILES is read from it. * marks the point of attachment. ξ: configuration not given here. Octatrienoyl(2E,4E,6E) = C/C=C/C=C/C=C/C(=O)*; Hexadienoyl(2E,4E) = C/C=C/C=C/C(=O)*; ξPro(4ξ-Me) = CC1CNC(C(=O)O)C1; X2 = CCC/C=C/C=C/C(=O)*; NMeA = CN[CH](C)C(=O)O; X1 = O=C(/C=C/C=C/CO)*

Please state, for each entry, its recorded Zone diameter.
1. CCC/C=C/C=C/C(=O)NC(Cc1ccccc1)C(=O)NC1COC(=O)C2CCCN2C(=O)C(C)NC(=O)C(C)N(C)C(=O)C2CC(C)CN2C1=O (stereo not shown) [Factor D] (X2-FS[ξPro(4ξ-Me)][NMeA]AP; ester 2-C; configuration not given here)
2. C/C=C/C=C/C=C/C(=O)NC(Cc1ccccc1)C(=O)NC1COC(=O)C2CCCN2C(=O)C(C)NC(=O)C(C)N(C)C(=O)C2CCCN2C1=O (stereo not shown) [Factor B] ({Octatrienoyl(2E,4E,6E)}-FSP[NMeA]AP; ester 2-C; configuration not given here)

["34 mm.", "32 mm."]

Below are some compounds; for each one, tell me its Zone diameter.
1. C/C=C/C=C/C(=O)NC(Cc1ccccc1)C(=O)NC1COC(=O)C2CCCN2C(=O)C(C)NC(=O)C(C)N(C)C(=O)C2CC(C)CN2C1=O (stereo not shown) [Factor C] ({Hexadienoyl(2E,4E)}-FS[ξPro(4ξ-Me)][NMeA]AP; ester 2-C; configuration not given here)
2. CC1CC2C(=O)N(C)C(C)C(=O)NC(C)C(=O)N3CCCC3C(=O)OCC(NC(=O)C(Cc3ccccc3)NC(=O)/C=C/C=C/CO)C(=O)N2C1 (stereo not shown) [Factor H] (X1-FS[ξPro(4ξ-Me)][NMeA]AP; ester 2-C; configuration not given here)

1: 30 mm.; 2: 36 mm.
